src = ChEMBL document CHEMBL3243950

Please respond with reported inhibition at 2 µM for every item in the list.
biological target: Cytochrome P450 11B1, mitochondrial (Bos taurus); experiment: Inhibition of bovine adrenal gland 11beta-hydroxylase assessed as inhibition of [14C]-deoxycorticosterone hydroxylation at 2 uM; conditions: cattle
Sequence (P15150 whole entry): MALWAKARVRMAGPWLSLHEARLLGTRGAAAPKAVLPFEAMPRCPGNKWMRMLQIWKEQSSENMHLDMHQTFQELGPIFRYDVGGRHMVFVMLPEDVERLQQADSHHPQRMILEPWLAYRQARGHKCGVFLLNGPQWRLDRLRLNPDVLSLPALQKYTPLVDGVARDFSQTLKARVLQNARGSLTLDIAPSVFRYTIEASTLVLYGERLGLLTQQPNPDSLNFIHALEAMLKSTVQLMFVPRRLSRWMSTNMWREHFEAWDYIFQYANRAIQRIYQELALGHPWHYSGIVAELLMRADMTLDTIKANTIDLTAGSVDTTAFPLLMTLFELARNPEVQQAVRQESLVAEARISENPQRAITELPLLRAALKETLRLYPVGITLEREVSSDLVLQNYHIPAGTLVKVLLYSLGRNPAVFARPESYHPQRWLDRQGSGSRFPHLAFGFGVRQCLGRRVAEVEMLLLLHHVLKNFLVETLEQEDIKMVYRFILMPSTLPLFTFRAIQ
Give bare numbers, in %.

In the examples that follow, each entry is paired with its recorded inhibition at 2 µM.
compound="O=C(c1ccccc1)C(c1ccccc1)c1cccnc1 (centres undefined)" experimental_target="Cytochrome P450 11B1, mitochondrial (Bos taurus)" numeric_value=22
compound="OC(Cc1cccnc1)c1cccnc1 (racemic)" experimental_target="Cytochrome P450 11B1, mitochondrial (Bos taurus)" numeric_value=7
compound="CC(C(=O)c1cccnc1)c1ccccc1 (centres undefined)" experimental_target="Cytochrome P450 11B1, mitochondrial (Bos taurus)" numeric_value=13

Please give inhibition at 2 µM, item by item, for the list that follows.
1. OC(c1cccnc1)C(c1ccccc1)c1cccnc1 (racemic)
2. O=C(c1cccnc1)C(c1ccccc1)c1ccccc1
3. CC(C)(c1cccnc1)C(O)c1cccnc1 (centres undefined)
4. OC(c1cccnc1)C(c1ccccc1)c1ccccc1 (centres undefined)
5. CC(C(=O)c1ccccc1)c1cccnc1 (centres undefined)
6. C[C@@H](c1cccnc1)[C@@H](O)c1cccnc1 (relative stereo)

[9, 15, 44, 17, 44, 28]

Please give inhibition at 2 µM, item by item, for the list that follows.
1. OC(c1ccccc1)C(c1ccccc1)c1cccnc1 (centres undefined)
2. CC(C)(C(=O)c1cccnc1)c1cccnc1
3. O=C(Cc1cccnc1)c1ccccc1
4. O=C(c1cccnc1)C(c1ccccc1)c1cccnc1 (centres undefined)
5. O=C(Cc1ccccc1)c1cccnc1

1: 44; 2: 68; 3: 15; 4: 35; 5: 9
